Target: Cytochrome P450 3A4 (Homo sapiens) (UniProt P08684)
Sequence (P08684 whole entry, looked up): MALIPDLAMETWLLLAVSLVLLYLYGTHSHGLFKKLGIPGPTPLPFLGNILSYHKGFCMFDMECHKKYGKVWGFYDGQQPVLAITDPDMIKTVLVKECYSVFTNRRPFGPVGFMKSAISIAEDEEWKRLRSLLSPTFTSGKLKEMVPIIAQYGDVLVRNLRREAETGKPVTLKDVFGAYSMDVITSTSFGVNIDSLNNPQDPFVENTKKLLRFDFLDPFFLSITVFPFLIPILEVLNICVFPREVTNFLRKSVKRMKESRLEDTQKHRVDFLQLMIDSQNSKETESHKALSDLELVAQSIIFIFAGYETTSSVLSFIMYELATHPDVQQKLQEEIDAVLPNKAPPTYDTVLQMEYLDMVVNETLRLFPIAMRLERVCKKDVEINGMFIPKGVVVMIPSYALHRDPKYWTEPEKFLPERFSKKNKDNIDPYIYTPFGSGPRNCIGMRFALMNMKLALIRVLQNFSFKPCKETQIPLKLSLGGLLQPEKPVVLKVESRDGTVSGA
Test: Cytochrome P450 Family 3 Subfamily A Member 4 (CYP3A4) small molecule antagonists: luciferase reporter qHTS assay (AID 1671201); also: nearly all actives have a fitted effect of over 50% in size; also: potency is read from the fitted curve at half-maximal effect
Settings: P450-Glo CYP3A4 enzyme, luciferin luminescence, 1 h; series mostly up to 115 µM
Inconclusive results are not listed. Calls of active or inactive are those of the source. Calls follow the shape of the dose curve; as a rule, active = well fitted inhibition curve with a large enough effect in the repeat runs; inconclusive = weak or mixed curves; inactive = no such curve, though single readings can be large or run the other way.

# COMPOUND, TGT, Potency
measured = [
    ("CCc1ccc(Br)cc1", "Cytochrome P450 3A4 (Homo sapiens) (UniProt P08684)", "inactive"),
    ("Cc1cc(-n2nc3ccc(Cl)cc3n2)c(O)c(C(C)(C)C)c1", "Cytochrome P450 3A4 (Homo sapiens) (UniProt P08684)", "inactive"),
    ("O=[N+]([O-])c1cccc(C(F)(F)F)c1", "Cytochrome P450 3A4 (Homo sapiens) (UniProt P08684)", "inactive"),
    ("O=C(O)CCN(C1(C(=O)NO)CCCC1)S(=O)(=O)c1ccc(Oc2ccc(F)cc2)cc1", "Cytochrome P450 3A4 (Homo sapiens) (UniProt P08684)", "inactive"),
    ("CCN(CC)C(=O)c1cc(S(=O)(=O)Cc2ccccc2)c(N2CCC(c3ccccc3)CC2)cc1N(CC)CCN(C)C", "Cytochrome P450 3A4 (Homo sapiens) (UniProt P08684)", "0.125 µM (active)"),
    ("CCC(=O)C(=O)CC", "Cytochrome P450 3A4 (Homo sapiens) (UniProt P08684)", "5.88 µM (active)"),
    ("CCC(=O)OC(=O)CC", "Cytochrome P450 3A4 (Homo sapiens) (UniProt P08684)", "inactive"),
    ("CCCCCCCC", "Cytochrome P450 3A4 (Homo sapiens) (UniProt P08684)", "inactive"),
    ("C=C(CC)C(=O)c1ccc(OCC(=O)O)c(Cl)c1Cl", "Cytochrome P450 3A4 (Homo sapiens) (UniProt P08684)", "inactive"),
    ("C=CCCC(=O)/C=C/C1C(C)=CCCC1(C)C (stereo unspecified)", "Cytochrome P450 3A4 (Homo sapiens) (UniProt P08684)", "17.8 µM (active)"),
    ("O=C1OC2(c3ccc(O)cc3Oc3cc(O)ccc32)c2ccc(N=C=S)cc21", "Cytochrome P450 3A4 (Homo sapiens) (UniProt P08684)", "inactive"),
    ("Cc1c(F)c(N2CCNC(C)C2)cc2c1c(=O)c(C(=O)O)cn2C1CC1 (stereo unspecified)", "Cytochrome P450 3A4 (Homo sapiens) (UniProt P08684)", "inactive"),
    ("FC(F)(F)c1cccc(Cl)c1", "Cytochrome P450 3A4 (Homo sapiens) (UniProt P08684)", "inactive"),
    ("CC1=CCC(=C(C)C)CC1", "Cytochrome P450 3A4 (Homo sapiens) (UniProt P08684)", "20 µM (active)"),
    ("CCOC(=O)NNc1ccc(N(CC)CC(C)O)nn1 (stereo unspecified)", "Cytochrome P450 3A4 (Homo sapiens) (UniProt P08684)", "inactive"),
    ("C#C[C@]1(OC(C)=O)CC[C@H]2[C@@H]3CCC4=C[C@@H](OC(C)=O)CC[C@@H]4[C@H]3CC[C@@]21C", "Cytochrome P450 3A4 (Homo sapiens) (UniProt P08684)", "inactive"),
    ("Nc1nc(-c2ccccc2)cs1", "Cytochrome P450 3A4 (Homo sapiens) (UniProt P08684)", "5.62 µM (active)"),
    ("OC12N=C(c3ccccc3)SC1Cc1cc(Cl)ccc12 (stereo unspecified)", "Cytochrome P450 3A4 (Homo sapiens) (UniProt P08684)", "31.7 µM (active)"),
    ("S=C([S-])NCCNC(=S)[S-].S=C([S-])NCCNC(=S)[S-].[Mn+2].[Zn+2]", "Cytochrome P450 3A4 (Homo sapiens) (UniProt P08684)", "inactive"),
    ("CC(=O)[C@H]1CC[C@H]2[C@@H]3CCC4=CC(=O)CC[C@]4(C)[C@H]3CC[C@]12C", "Cytochrome P450 3A4 (Homo sapiens) (UniProt P08684)", "inactive"),
    ("O=c1oc2cc(O)ccc2c2oc3cc(O)ccc3c12", "Cytochrome P450 3A4 (Homo sapiens) (UniProt P08684)", "19.2 µM (active)"),
    ("O=C(O)c1ccc2cc(C(=O)O)ccc2c1", "Cytochrome P450 3A4 (Homo sapiens) (UniProt P08684)", "inactive"),
    ("COc1cccc(OC)c1C(=O)O", "Cytochrome P450 3A4 (Homo sapiens) (UniProt P08684)", "inactive"),
    ("Nc1nc(N)nc(-c2cc(Cl)ccc2Cl)n1", "Cytochrome P450 3A4 (Homo sapiens) (UniProt P08684)", "inactive"),
    ("O=C(O)Cc1ccc2c(c1)C(=O)c1ccccc1CO2", "Cytochrome P450 3A4 (Homo sapiens) (UniProt P08684)", "inactive"),
    ("CC(CCc1ccccc1)NCC(O)c1ccc(O)c(C(N)=O)c1 (stereo unspecified)", "Cytochrome P450 3A4 (Homo sapiens) (UniProt P08684)", "inactive"),
]

Source: PubChem BioAssay (Tox21)
